- Test system: Plasmodium berghei
- test_method_notes: Antimalarial activity as reduced parasitaemia at day 3 against Plasmodium berghei infected MORO mice (Mus musculus) at 100 mg/kg subcutaneous dose
- Format: functional
- Set-up: scale not given: the % may be the effect or the level left
The compounds listed here are annotated with their Activity.

compound	system	u	Activity
C[C@@H]1CC[C@H]2[C@@H](C)C(=O)O[C@@H]3O[C@@]4(C)CC[C@@H]1[C@]32OO4	Plasmodium berghei	%	99.99
CCCCC1(CCCC)OOC(CCCC)(CCCC)OO1	Plasmodium berghei	%	5
C[C@@H]1CCCCC12OOC1(CCCC[C@@H]1C)OO2 (stereo not given in full)	Plasmodium berghei	%	99.99
CCCC1(CCC)OOC(CCC)(CCC)OO1	Plasmodium berghei	%	0
C1CCCC2(CC1)OOC1(CCCCCC1)OO2	Plasmodium berghei	%	56

====

- Test system: Plasmodium falciparum
- test_method_notes: Antimalarial activity against Plasmodium falciparum NF54
- Assay type: functional, organism-based
measured_endpoint: IC50 (µg/mL)

molecule	measured_endpoint	u	comparator	meas_value
C[C@@H]1CC[C@H]2[C@@H](C)C(=O)O[C@@H]3O[C@@]4(C)CC[C@@H]1[C@]32OO4 [ARTEMISININ]	IC50	µg/mL	=	0.0034
CCCC1(CCC)OOC(CCC)(CCC)OO1	IC50	µg/mL	=	0.023
C1CCC2(CC1)COC1(CCCCC1)OC2	IC50	µg/mL	>	10
CCCCC1(CCCC)OOC(CCCC)(CCCC)OOC(CCCC)(CCCC)OO1	IC50	µg/mL	>	10
C1CCCC2(CC1)OOC1(CCCCCC1)OO2	IC50	µg/mL	=	0.011
CCCCC1(CCCC)OOC(CCCC)(CCCC)OO1	IC50	µg/mL	=	0.088
